procedure-text: yeast display, Sf9 membrane polyspecificity reagent, FACS + sequencing; frameworks hold sequencing errors
measured-endpoint: polyreactivity (PSR sort gate)

input-sequence	observed-result
QDQLVESVGGLVQAGGSLRLSCAASGRTLVRYVMGWYRQAPGKERELVAAISARTGSTYYADSVKGRFTISRDNAKNTVYLQMNSLKPEDTAVYYCATKFSSYDTRVSYDYWGQGTQVTVSS	low polyreactivity
QVQLVESGGGLVQAGGSLRLSCAASGGTFRVYVMGLYRQATGKERELVAAISRGGGSTYYADSVKGRFTISRDNAKNTVYLQMNSLKPEDTAVYYCAARVWRYPWRASEYDYWGQGTQVTVSS	high polyreactivity
QVQLVESGGGLVQAGGSLRLSCAASGSILDYYVMGWYSQAPGKERELVAAIRGGGSTYYADSVKARFTISRDNAKNTVYLQMNSLKPEDTAVYYCAKDSQTARDFDYWGQGTQVTVSS	low polyreactivity
QVQLVESGGGIVQAGGSLRLSCAASGGIFYRNAMGWYRQAPGKERELVAAISWRGGSTYYADSVKGRFTNSRDNAKNTVYLQMNSLKPEDTAVYFCAARSVATYRYDYWGQGTQVTVSS	high polyreactivity

All figures here come from the nanobody polyreactivity screen of Harvey et al. (2022).
